biological target: VEGFR-2 (KDR/Fc chimera) binding to VEGF (Homo sapiens); test: Competitive ELISA, binding of sVEGFR-2/Fc to immobilized VEGF
Sequence (P35968 with tags, fused parts or gaps limits assumed): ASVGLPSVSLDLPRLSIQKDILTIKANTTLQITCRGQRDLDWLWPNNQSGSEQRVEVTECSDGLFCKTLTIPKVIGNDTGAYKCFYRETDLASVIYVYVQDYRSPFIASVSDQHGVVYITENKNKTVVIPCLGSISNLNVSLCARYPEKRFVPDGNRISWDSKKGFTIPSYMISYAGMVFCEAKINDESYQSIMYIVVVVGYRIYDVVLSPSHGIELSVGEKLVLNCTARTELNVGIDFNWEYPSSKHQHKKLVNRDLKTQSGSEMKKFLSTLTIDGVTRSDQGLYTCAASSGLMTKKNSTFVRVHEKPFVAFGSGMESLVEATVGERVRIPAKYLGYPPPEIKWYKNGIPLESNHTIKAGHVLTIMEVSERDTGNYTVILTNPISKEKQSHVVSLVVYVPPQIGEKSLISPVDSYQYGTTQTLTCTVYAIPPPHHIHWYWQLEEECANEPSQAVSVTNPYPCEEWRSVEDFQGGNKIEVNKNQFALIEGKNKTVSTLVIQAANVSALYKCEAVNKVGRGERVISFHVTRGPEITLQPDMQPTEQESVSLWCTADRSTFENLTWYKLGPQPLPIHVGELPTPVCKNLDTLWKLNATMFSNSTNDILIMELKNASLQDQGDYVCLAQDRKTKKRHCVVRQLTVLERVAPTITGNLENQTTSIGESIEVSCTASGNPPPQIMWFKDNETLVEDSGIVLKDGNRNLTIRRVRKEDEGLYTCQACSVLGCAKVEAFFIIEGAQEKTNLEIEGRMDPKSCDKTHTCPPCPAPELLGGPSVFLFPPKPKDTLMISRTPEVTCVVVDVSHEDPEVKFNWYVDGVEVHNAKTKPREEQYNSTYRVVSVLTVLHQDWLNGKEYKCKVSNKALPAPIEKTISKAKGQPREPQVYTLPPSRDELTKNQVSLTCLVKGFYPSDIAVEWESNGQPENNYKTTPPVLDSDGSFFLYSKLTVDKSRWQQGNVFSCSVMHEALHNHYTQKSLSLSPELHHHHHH
Ends that are not written are not given here.
observable: IC50 (µM)
Dear colleague, please return just the value in µM, with no unit written.

Data point: GYCSWYRGWAPPDKSIINATDP [T3-tail] ; IC50 = 5
